assay: Cannabinoid profile of crystalline product samples by HPLC-DAD-MS analysis (cannabinoid preservation); settings: crystalline product, sucrose, with rapid cooling process; retest
MEASURED_QUANTITY: Cannabinoid quantity in (Retest) Sample R104A (mg/g)

compound="CCCCCc1cc(O)c2c(c1)OC(C)(C)c1ccc(C)cc1-2 [CBN, Cannabinol]" numeric_result=1.26
compound="CCCCCc1cc(O)c2c(c1)OC(C)(CCC=C(C)C)C=C2 (stereo not shown) [CBC, Cannabichromene]" numeric_result=1.15
compound="CCCCCc1cc(O)c(C/C=C(\\C)CCC=C(C)C)c(O)c1 [CBG, Cannabigerol]" numeric_result=1.29
compound="CCCCCc1cc(O)c2c(c1)OC(C)(C)[C@@H]1CC=C(C)C[C@@H]21 [Δ8-THC, Δ-8-tetrahydrocannabinol]" numeric_result=1.36
